Molecular target: ERK5 (Homo sapiens, UniProt Q13164)
Construct: screened for activity against several kinases in Jurkat cells; endogenous in cells; host or cells: Jurkat cell lysate
Sequence (Q13164 whole entry): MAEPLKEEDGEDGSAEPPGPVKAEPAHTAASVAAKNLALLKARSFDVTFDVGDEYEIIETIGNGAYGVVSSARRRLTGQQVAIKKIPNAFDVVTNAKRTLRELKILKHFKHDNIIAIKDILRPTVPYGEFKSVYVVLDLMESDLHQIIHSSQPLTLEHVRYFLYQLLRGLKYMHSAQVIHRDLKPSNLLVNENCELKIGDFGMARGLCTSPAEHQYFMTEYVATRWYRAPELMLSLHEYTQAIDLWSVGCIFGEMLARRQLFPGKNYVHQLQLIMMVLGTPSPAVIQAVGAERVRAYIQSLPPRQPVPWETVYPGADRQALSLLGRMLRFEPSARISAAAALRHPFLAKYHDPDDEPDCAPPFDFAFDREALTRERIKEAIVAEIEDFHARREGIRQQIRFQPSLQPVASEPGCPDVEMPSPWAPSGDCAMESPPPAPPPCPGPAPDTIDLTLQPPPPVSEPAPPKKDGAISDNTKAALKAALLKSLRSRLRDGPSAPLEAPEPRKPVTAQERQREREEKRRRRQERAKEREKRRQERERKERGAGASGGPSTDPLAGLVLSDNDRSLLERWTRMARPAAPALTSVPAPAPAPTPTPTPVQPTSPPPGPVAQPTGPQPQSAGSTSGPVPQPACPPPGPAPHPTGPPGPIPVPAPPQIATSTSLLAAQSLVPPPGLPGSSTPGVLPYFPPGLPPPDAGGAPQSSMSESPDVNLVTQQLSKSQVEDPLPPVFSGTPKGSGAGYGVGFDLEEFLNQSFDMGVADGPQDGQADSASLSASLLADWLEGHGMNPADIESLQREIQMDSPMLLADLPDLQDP
Assay: Probe-based (AX9989 acyl phosphate ATP probe) kinase profiling in Jurkat lysate: ERK5
Type: binding
Conditions: screening concentration 1.0 μM; read-out: Kinase inhibition % at indicated screening concentration: ERK5
Experimental: In this example, potency of the compounds as ERK5 inhibitors was assessed, and the compounds were screened for activity against several kinases in Jurkat cells. […] Kinase active site peptides were identified and quantified using LC/MS. Percent inhibition was calculated as the normalized decrease in the ESI-MS fragment intensities of probe-labeled peptides in samples incubated with the test compound compared to those without. […]
quantity_kind: inhibition at 1 µM

The following compounds have reported results that may help.
Cc1cc(O)ccc1Nc1cc2c(cn1)N(C)C(=O)c1ccccc1N2C	50 to 75%
CCOc1cc(C(=O)N2CCN(CC)CC2)ccc1Nc1cc2c(cn1)N(C)C(=O)c1ccccc1N2C	> 90%
Cc1cc(CN2CCCC2)ccc1Nc1cc2c(cn1)N(C)C(=O)c1ccccc1N2C	> 90%

Return reported inhibition at 1 µM values for all items listed beneath this line.
1. COc1ccccc1Nc1cc2c(cn1)N(C)C(=O)c1ccccc1N2C
2. CN1C(=O)c2ccccc2N(C)c2cc(N[C@H]3CC[C@H](NC4=NCCO4)CC3)ncc21
3. CCN(CC)CCNC(=O)c1cccc(Nc2cc3c(cn2)N(C)C(=O)c2ccccc2N3C)c1OC
4. CCOc1cc(C(=O)N2CCCNCC2)ccc1Nc1cc2c(cn1)N(C)C(=O)c1ccccc1N2C
5. CCOc1cc(C(=O)NCCN2CCCC2)ccc1Nc1cc2c(cn1)N(C)C(=O)c1ccccc1N2C
6. CCOc1cc(C)ccc1Nc1cc2c(cn1)N(C)C(=O)c1ccccc1N2C

["50 to 75%", "75 to 90%", "50 to 75%", "> 90%", "75 to 90%", "≤ 35%"]

For the 3 compounds below, give their inhibition at 1 µM values.
1. COc1cc(C)c(Nc2cc3c(cn2)N(C)C(=O)c2ccccc2N3C)cn1
2. CN1C(=O)c2ccccc2N(C)c2cc(N[C@H]3CC[C@H](N4CCCC4)CC3)ncc21
3. CCOc1cc(C(=O)N2CCC(N3CCN(C)CC3)CC2)ccc1Nc1cc2c(cn1)N(C)C(=O)c1ncccc1N2C

["50 to 75%", "50 to 75%", "> 90%"]

Hello, the source for this data is patent US20170008888A1, in case you need it.
